# Assay notes: chemical genetic growth profiling, strain panel (AID 1159580);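 further: tested at 20 µM; growth read once vehicle control cultures reached saturation at 30 °C; 1 = growth at the plate median or of vehicle wells; lower values mean less growth of the strain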
# Conditions: S. cerevisiae deletion strains, growth OD, locus YLR262C, strain YPT6 (second series), stronger effect = lower value
Hit rate of the full screen: of about 5,500 compounds, about 2,000 (36%) were called active. Another 18% or so got no clear call; they are omitted. Some of the results follow.
Observable: normalized growth
Give a plain numeric answer without units written out.

Solved cases (6 shown):
CC1=CCc2c(cc3oc(C)cc(=O)c3c2O)OC1: 0.883
COc1ccc2cc3[n+](cc2c1OC)CCc1cc2c(cc1-3)OCO2: 1.04
CC(=O)Oc1ccc(-c2cc(=O)c3c(OC(C)=O)cc(OC(C)=O)cc3o2)cc1: 0.999
CN(C)CCC=C1c2ccccc2C=Cc2ccccc21: 1.02
O=C(O)c1nc2cc(Cl)c(Cl)cc2[nH]c1=O: 1.02
CC[C@]12C=CCN3CC[C@@]4(c5ccc(OC)cc5N(C)C4[C@@](O)(C(=O)OC)[C@@H]1OC(C)=O)[C@@H]32 (stereo partly drawn): 0.927

IN: Any idea what normalized growth was measured for CNCCC=C1c2ccccc2CCc2ccccc21 ?
OUT: 1.01

IN: Any idea what normalized growth was measured for Cc1cc2cc3c(C)cc(=O)oc3c(C)c2o1 ?
OUT: 0.994

IN: Any idea what normalized growth was measured for OC1C(O)C(O)C(O)C(O)C1O (stereo not drawn) ?
OUT: 1
